experimentalTarget: Prostaglandin G/H synthase 1 (Homo sapiens)
assayDetails: Inhibition of cyclooxygenase 1 at 10.0 uM after 20 mins
Design: scale not given: the % may be the effect or the level left
measureName: Activity (%)
Numbers only, in %.

Worked examples, 4 compounds total:
{"structureString": "Oc1c(Br)cc(CCc2ccccc2)cc1Br", "measureName": "Activity", "readoutNumber": 7}
{"structureString": "Cc1cc(CCc2ccccc2)cc(C)c1O", "measureName": "Activity", "readoutNumber": 0}
{"structureString": "Cc1cc(Oc2ccccc2)cc(C)c1O", "measureName": "Activity", "readoutNumber": 0}
{"structureString": "O=C(Nc1ccccc1)Nc1cc(Br)cc(Br)c1", "measureName": "Activity", "readoutNumber": 2}

For each of the items listed, what is its Activity?
1. Cc1cc(-c2ccccc2)cc(C)c1O
2. O=C(Nc1ccccc1)Nc1cc(Br)c(O)c(Br)c1
3. O=S(=O)(Nc1ccc(Br)c(O)c1Br)c1ccccc1
4. O=C(Nc1cc(Br)c(O)c(Br)c1)c1ccccc1
5. Brc1cc(Br)cc(-c2ccccc2)c1
6. Oc1c(Br)cc(/C=C/c2ccccc2)cc1Br
7. Oc1c(Br)cc(-c2ccccc2)cc1Br
8. Brc1cc(Br)cc(-c2nc3ccccc3o2)c1

Response:
1: 4; 2: 2; 3: 2; 4: 0; 5: 0; 6: 28; 7: 2; 8: 1

----------
assayDetails: Displacement of [125I]triiodothyronine from thyroid hormone receptor at 10.0 uM after 18 hrs
Assign Activity to each entry below.

Worked examples, 5 molecules total:
{"structureString": "O=C(Nc1ccccc1)Nc1cc(Br)cc(Br)c1", "measureName": "Activity", "result": "< 5%"}
{"structureString": "Brc1cc(Br)cc(-c2ccccc2)c1", "measureName": "Activity", "result": "< 5%"}
{"structureString": "Cc1cc(CCc2ccccc2)cc(C)c1O", "measureName": "Activity", "result": "57%"}
{"structureString": "Oc1c(Br)cc(/C=C/c2ccccc2)cc1Br", "measureName": "Activity", "result": "< 5%"}
{"structureString": "Oc1c(Br)cc(CCc2ccccc2)cc1Br", "measureName": "Activity", "result": "< 5%"}

For each of the items listed, what is its Activity?
1. Oc1c(Br)cc(-c2ccccc2)cc1Br
2. Cc1cc(/C=C/c2ccccc2)cc(C)c1O
3. Brc1cc(Br)cc(-c2nc3ccccc3o2)c1

Response:
["< 5%", "23%", "11%"]

----------
Assign Activity to each entry below.
experimentalTarget: UniProt:P02766
assayDetails: Inhibition of wild type-TTR expressed in Escherichia coli assessed as amyloid fibril formation at pH 4.4 at 7. 2 uM after 72 hrs by acid-mediated aggregation assay relative to control
Parameters: scale not given: the % may be the effect or the level left
Numbers only, in %.

Worked examples, 4 compounds total:
{"structureString": "Brc1cc(Br)cc(Oc2ccccc2)c1", "Activity [%]": 44}
{"structureString": "O=C(Nc1cc(Br)c(O)c(Br)c1)c1ccccc1", "Activity [%]": 26}
{"structureString": "Brc1cc(Br)cc(-c2ccccc2)c1", "Activity [%]": 14}
{"structureString": "Oc1c(Br)cc(CCc2ccccc2)cc1Br", "Activity [%]": 1}

For each of the items listed, what is its Activity?
1. Cc1cc(-c2ccccc2)cc(C)c1O
2. O=C(Nc1ccccc1)Nc1cc(Br)cc(Br)c1
3. O=C(Nc1ccccc1)c1cc(Br)c(O)c(Br)c1
4. Cc1cc(C)cc(Nc2ccccc2)c1
5. Cc1cc(C)cc(C(=O)Nc2ccccc2)c1
6. Cc1cc(C)cc(-c2ccccc2)c1
7. Cc1cc(C)cc(NC(=O)Nc2ccccc2)c1

Response:
1. 2
2. 9
3. 2
4. 47
5. 88
6. 71
7. 77

For each of the items listed, what is its Activity?
1. Cc1cc(C)cc(Oc2ccccc2)c1
2. Cc1cc(C(=O)Nc2ccccc2)cc(C)c1O
3. Cc1cc(CCc2ccccc2)cc(C)c1O

Response:
1: 80; 2: 81; 3: 3
